The reported measurements were obtained from patent US20240308995A1.

Let's look at some compounds and their measured efflux ratio at 2 h.
tested on: P-gp (MDR1); test: MDR1-MDCK Efflux Ratio Assay; format: in vitro ADME; conditions: dog, MDCK-MDR1, pH 7.4, MDR1-MDCK cells, 2 hr, pH 7.4; read-out: MDR1-MDCK Efflux Ratio (B-A/A-B)
Reply with the value as a number alone.

CC(=O)Nc1nc(F)c(CN2C[C@H](Oc3cnc(C)cn3)C[C@@H]2C)s1 | 3.4
CC(=O)Nc1ncc(CN2C[C@@H](Oc3cc(C)nc(C)c3)C[C@H]2C)s1 | 45.3
CC(=O)Nc1ncc(CN2C[C@H](Oc3cc(NC4CCC4)ncn3)C[C@@H]2C)s1 | 53.4
CC(=O)Nc1nc(F)c(CN2C[C@H](Oc3cc(F)c(F)cn3)C[C@@H]2C)s1 | 1.2
CC(=O)Nc1nc(F)c(CN2C[C@H](Oc3cc(Cl)ccn3)C[C@@H]2C)s1 | 1.5

Problem: Return efflux ratio at 2 h for the following compound: CC(=O)Nc1ncc(CN2C[C@H](Oc3ncc(OC(F)F)cn3)C[C@@H]2C)s1
Result: 18.1

Problem: Consider the compound CO[C@H]1C[C@H](Oc2cc(O[C@@H]3C[C@H](C)N(Cc4cnc(NC(C)=O)s4)C3)ncn2)C1 and give its recorded efflux ratio at 2 h.
Result: 10.3

Problem: // Input: COc1nc(C)cc(O[C@@H]2C[C@H](C)N(Cc3cnc(NC(C)=O)s3)C2)n1 . Output its efflux ratio at 2 h only.
Result: 6.7
